Source of measurements: the NIST ThermoML archive (doi:10.1007/s10765-016-2064-y)

assayComment: molar heat capacity at constant pressure
experimentalContext: 408.15 K; 101.33 kPa; Liquid; Large sample (1 g) DSC
Recorded molar heat capacity at constant pressure values for a group of compounds are listed next.

>  <compound>
CCCCCCCCCCCCCCBr [1-tetradecyl bromide]

>  <unitAbbrev>
J/K/mol

>  <molar heat capacity at constant pressure>
522.1

$$$$
>  <compound>
CCCCCCCCCCCCBr [1-bromododecane]

>  <unitAbbrev>
J/K/mol

>  <molar heat capacity at constant pressure>
467.23

$$$$
>  <compound>
CCCCCCCCCCBr [1-bromodecane]

>  <unitAbbrev>
J/K/mol

>  <molar heat capacity at constant pressure>
389.27

$$$$
>  <compound>
CCCCCCCCCCCBr [1-bromoundecane]

>  <unitAbbrev>
J/K/mol

>  <molar heat capacity at constant pressure>
428.02

$$$$
>  <compound>
CCCCCCCCBr [1-bromooctane]

>  <unitAbbrev>
J/K/mol

>  <molar heat capacity at constant pressure>
328.31

$$$$
>  <compound>
CCCCCCBr [1-bromohexane]

>  <unitAbbrev>
J/K/mol

>  <molar heat capacity at constant pressure>
255.32

$$$$
>  <compound>
CCCCCCCBr [1-bromoheptane]

>  <unitAbbrev>
J/K/mol

>  <molar heat capacity at constant pressure>
289.83

$$$$
>  <compound>
CCCCCCCCCBr [1-bromononane]

>  <unitAbbrev>
J/K/mol

>  <molar heat capacity at constant pressure>
358.08

$$$$
